The measured values listed here are drawn from patent US20250171438A1.

Listed compounds paired with reported AC50
biological target: human PAH with the R408W mutation (Homo sapiens, UniProt P00439, R408W); construct: expressed in transfected cells; assay: Cell Based Phenylalanine Flux Assay; details: A375 cells expressing human R408W PAH; 24 hrs compound incubation; 13C-Tyrosine by LC-MS; average where tested multiple times; read-out: AC50
Sequence (P00439 whole entry R408W): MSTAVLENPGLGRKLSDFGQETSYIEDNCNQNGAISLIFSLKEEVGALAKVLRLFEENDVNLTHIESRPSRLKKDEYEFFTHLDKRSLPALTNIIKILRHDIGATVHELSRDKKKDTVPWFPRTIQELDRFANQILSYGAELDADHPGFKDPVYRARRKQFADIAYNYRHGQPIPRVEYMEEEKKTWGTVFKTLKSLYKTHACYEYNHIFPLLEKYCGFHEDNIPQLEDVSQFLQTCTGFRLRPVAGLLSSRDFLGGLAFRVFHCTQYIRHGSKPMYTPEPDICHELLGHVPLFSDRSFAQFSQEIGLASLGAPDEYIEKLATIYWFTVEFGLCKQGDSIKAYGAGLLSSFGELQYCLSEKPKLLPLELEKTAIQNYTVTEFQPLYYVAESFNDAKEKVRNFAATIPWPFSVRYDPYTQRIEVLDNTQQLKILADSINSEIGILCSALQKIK

CC(C)n1ncc(C(=O)N2CCc3[nH]cnc3[C@H]2c2nc3c(F)cccc3s2)c1Br: 0.5 to 1 µM

Per the record, O=C(c1nccs1)N1CCc2nc[nH]c2[C@H]1c1nc2c(F)cccc2s1 has AC50 of 0.5 to 1 µM

Given item Cn1nc(Cl)nc1C(=O)N1CCc2[nH]cnc2[C@@H]1c1nc2ccccc2s1 , the value recorded as its AC50 is 1 to 5 µM

Noted for O=C(c1ocnc1C(F)F)N1CCc2[nH]cnc2[C@H]1c1nc2ccccc2s1 : its AC50 reads < 0.5 µM

Per the record, O=C(c1cnc(-c2c(F)cccc2F)s1)N1CCc2[nH]cnc2[C@H]1c1nc2c(F)cccc2s1 has AC50 of < 0.5 µM

Entry CC(C)(O)c1nnc(C(=O)N2CC3(CC3)c3[nH]cnc3[C@@H]2c2nc3ccccc3s2)o1 ; AC50 = > 5 µM

In plain terms, O=C(c1ocnc1C(F)(F)F)N1CCCc2[nH]cnc2[C@@H]1c1nc2ccccc2s1 has a documented AC50 of 1 to 5 µM
